protocol: Kinetic solubility of the compound
observed.property: Kinetic_solubility (µM)
One number for each entry, in µM.

Nc1nnc(-c2ccc(O)c(Cl)c2)c(-c2ccccc2)n1 : 45
Cc1cc(C)cc(-c2nnc(N)nc2-c2ccccc2)c1 : 20
Cc1cc(-c2nnc(N)nc2-c2cc(F)cc(F)c2)cc(C)n1 : 45

// Kinetic_solubility lookup, molecule = Cc1cc(-c2nnc(N)nc2-c2ccccc2)cc(C)n1 , result: 40

---

protocol: Cmax in rat at 2 mg/kg, po
Type: ADME, organism-based
Parameters: dose 2 mg/kg, route oral
experimental.context: in vivo
observed.property: Cmax (ng/mL)
Numbers only, in ng/mL.

// Cmax lookup, molecule = Cc1cc(-c2nnc(N)nc2-c2ccccc2)cc(C(F)(F)F)n1 , result: 244

Provenance of the data: ChEMBL document CHEMBL2021853
